The measured values listed here are drawn from paper PMC6173696.

Tested Target: HusA (Porphyromonas gingivalis)
Assay Notes: Tryptophan fluorescence quenching assay, HusA wild-type
Assay type: binding
Experimental Context: HusA wild-type 1 µM, fit to 1:1 binding model; read-out: Kd
Reported Kd values are given for each entry in this list.
Give your result in µM as a bare value.

| Entry Smiles | Unit Info | Kd |
| --- | --- | --- |
| CC1=Cc2cc3[n-]c(cc4[n-]c(cc5nc(cc1n2)C=C5C)c(C)c4CCC(=O)[O-])c(CCC(=O)[O-])c3C.[Fe+2].[H+].[H+] | µM | 0.22 |

Then there is this molecule:
Bench note: what Kd did "C=CC1=C(C)c2cc3[nH]c(cc4nc(cc5[nH]c(cc1n2)c(C)c5CCC(=O)O)C(CCC(=O)O)=C4C)c(C)c3C=C" show?
1.9

###

Tested Target: HusA (Porphyromonas gingivalis, UniProt Q7MSY3)
Assay Notes: Tryptophan fluorescence quenching assay, HusA wild-type
Format: binding
Experimental Context: estimate by comparison to other porphyrins, not fitted; UV-visible absorption and fluorescence data; read-out: affinity for HusA
Assay Readout: Kd

Bench note: what Kd did CC1=Cc2cc3[nH]c(cc4nc(cc5[nH]c(cc1n2)cc5C)C(C)=C4CCC(=O)N[C@@H](CCCCNC(=O)OC(C)(C)C)C(=O)NCCn1c([N+](=O)[O-])cnc1C)c(CCC(=O)O)c3C [P8] show?
1 to 10 µM

###

Tested Target: HusA (Porphyromonas gingivalis)
Sequence (Q7MSY3 24-218): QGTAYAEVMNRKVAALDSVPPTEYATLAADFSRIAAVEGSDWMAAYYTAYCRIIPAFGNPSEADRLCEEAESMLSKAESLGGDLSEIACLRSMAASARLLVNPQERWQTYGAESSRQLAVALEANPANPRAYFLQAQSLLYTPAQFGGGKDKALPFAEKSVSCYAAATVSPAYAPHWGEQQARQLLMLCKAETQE
Assay Notes: Tryptophan fluorescence quenching assay, HusA wild-type
Format: binding
Experimental Context: HusA wild-type 1 µM, fit to 1:1 binding model
Method: The quenching of intrinsic tryptophan fluorescence of HusA upon porphyrin additions was measured using a Carey Eclipse Fluorescence Spectrophotometer (Agilent) set to a photo multiplier effect (PME) of 850. A 5-mm path length quartz cuvette was used and all spectra were acquired at room temperature. Excitation was set to 295 nm and emission was measured from 300 nm to 500 nm using excitation/emission slit widths of 5 nm. […]
Assay Readout: pKd
In plain terms, pKd is the concentration in mol/L turned into minus its base-10 logarithm.

Bench note: what pKd did C=CC1=C(C)c2cc3[nH]c(cc4nc(cc5[nH]c(cc1n2)c(C)c5CCC(=O)O)C(CCC(=O)O)=C4C)c(C)c3C=C.[Fe+3] [haemin] show?
5.14
